Where these numbers come from: patent US10421755B2

experiment: Known multiple solid forms; format: physicochemical; conditions: comparison table, Example 7
measured.attribute: Known Multiple forms

As a guide, the following entries are already answered.
Cc1ccc(-c2ccc(O[C@H]3CN4CCC3CC4)cn2)cc1.O=P(O)(O)O [Form A of the mono-phosphate salt] :: Yes
Cc1ccc(-c2ccc(O[C@H]3CN4CCC3CC4)cn2)cc1.O=C(O)CCC(=O)O [Form A of the mono-succinate salt] :: Yes
Cc1ccc(-c2ccc(O[C@H]3CN4CCC3CC4)cn2)cc1 :: Yes
Cc1ccc(-c2ccc(O[C@H]3CN4CCC3CC4)cn2)cc1.O=C(O)CC(=O)O [mono-malonate salt] :: No
Cc1ccc(-c2ccc(O[C@H]3CN4CCC3CC4)cn2)cc1.Cl [mono-hydrochloride salt] :: Yes
Cc1ccc(-c2ccc(O[C@H]3CN4CCC3CC4)cn2)cc1.O=C(O)/C=C\C(=O)O [mono-maleate salt] :: No

Now for the compound whose Known Multiple forms we want.
I am curious: what Known Multiple forms value has been reported for `Cc1ccc(-c2ccc(O[C@H]3CN4CCC3CC4)cn2)cc1.O=C(O)/C=C/C(=O)O` ? No

* * *

experiment: Hygroscopicity (moisture gain at relative humidity); type: physicochemical
measured.attribute: hygroscopicity (in words)

Cc1ccc(-c2ccc(O[C@H]3CN4CCC3CC4)cn2)cc1.Cl [mono-hydrochloride salt] :: hygroscopic
Cc1ccc(-c2ccc(O[C@H]3CN4CCC3CC4)cn2)cc1 :: hygroscopic
Cc1ccc(-c2ccc(O[C@H]3CN4CCC3CC4)cn2)cc1.O=C(O)/C=C\C(=O)O [mono-maleate salt] :: slightly hygroscopic
Cc1ccc(-c2ccc(O[C@H]3CN4CCC3CC4)cn2)cc1.O=C(O)/C=C/C(=O)O :: slightly hygroscopic
Cc1ccc(-c2ccc(O[C@H]3CN4CCC3CC4)cn2)cc1.O=P(O)(O)O [Form A of the mono-phosphate salt] :: slightly hygroscopic

Now for the compound whose hygroscopicity (in words) we want.
I am curious: what hygroscopicity (in words) value has been reported for Cc1ccc(-c2ccc(O[C@H]3CN4CCC3CC4)cn2)cc1.O=C(O)CC(=O)O [mono-malonate salt] ? slightly hygroscopic

* * *

target: human neuronal nAChR α4β2 (Homo sapiens, UniProt P17787+P43681); experiment: similar functional assay using a human epithelial cell line stably expressing the human α4β2 subtype
Sequence (P43681 29-627 limits assumed): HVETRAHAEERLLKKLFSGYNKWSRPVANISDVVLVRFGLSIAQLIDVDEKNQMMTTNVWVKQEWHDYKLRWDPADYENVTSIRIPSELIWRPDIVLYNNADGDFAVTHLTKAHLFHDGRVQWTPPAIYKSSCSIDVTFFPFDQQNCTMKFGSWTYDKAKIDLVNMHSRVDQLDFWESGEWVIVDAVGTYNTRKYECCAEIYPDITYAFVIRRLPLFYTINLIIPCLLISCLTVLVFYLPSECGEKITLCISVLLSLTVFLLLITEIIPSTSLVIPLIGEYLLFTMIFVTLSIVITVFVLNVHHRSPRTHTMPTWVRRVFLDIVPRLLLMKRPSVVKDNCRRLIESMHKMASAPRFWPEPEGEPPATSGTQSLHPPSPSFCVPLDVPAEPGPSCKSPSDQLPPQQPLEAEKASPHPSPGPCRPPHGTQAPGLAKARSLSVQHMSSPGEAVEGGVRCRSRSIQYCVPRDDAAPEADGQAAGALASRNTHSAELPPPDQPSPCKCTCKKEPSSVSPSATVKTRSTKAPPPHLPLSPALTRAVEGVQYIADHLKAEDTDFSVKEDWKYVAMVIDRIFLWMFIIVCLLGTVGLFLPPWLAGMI
Sequence (P17787 26-502): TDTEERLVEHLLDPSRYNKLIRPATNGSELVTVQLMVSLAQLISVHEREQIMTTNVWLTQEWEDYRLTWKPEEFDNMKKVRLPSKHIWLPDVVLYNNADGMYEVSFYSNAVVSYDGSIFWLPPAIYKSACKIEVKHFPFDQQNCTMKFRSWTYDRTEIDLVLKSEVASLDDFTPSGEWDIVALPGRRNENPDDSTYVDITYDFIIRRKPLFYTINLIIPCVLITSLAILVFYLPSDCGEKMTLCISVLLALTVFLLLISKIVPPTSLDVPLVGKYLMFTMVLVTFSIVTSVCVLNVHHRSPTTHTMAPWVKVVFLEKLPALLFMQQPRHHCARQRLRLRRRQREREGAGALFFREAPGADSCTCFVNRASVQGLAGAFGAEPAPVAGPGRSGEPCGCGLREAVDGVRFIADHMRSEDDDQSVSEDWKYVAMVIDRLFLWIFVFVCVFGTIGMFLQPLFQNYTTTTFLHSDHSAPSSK
measured.attribute: pIC50
Reminder that pIC50 means the negative base-10 logarithm of the concentration expressed in mol/L.

Recall the recorded pIC50 for `Cc1ccc(-c2ccc(O[C@H]3CN4CCC3CC4)cn2)cc1` with human neuronal nAChR α4β2 (Homo sapiens, UniProt P17787+P43681) and state it. 5.25

* * *

experiment: Pharmacokinetics in rats after oral administration; type: in vivo, Wistar rats; details: male, Wistar, rat, in vivo, po, 10 mg/kg, Tmax (h)
measured.attribute: Tmax (min)
Give the number; min is assumed, so skip it.

I am curious: what Tmax value has been reported for Cc1ccc(-c2ccc(O[C@H]3CN4CCC3CC4)cn2)cc1 [Compound A] ? 15

* * *

Test: Pharmacokinetics in rats after oral administration
Format: in vivo, Wistar rats
Conditions: male, Wistar, rat, in vivo, po, 10 mg/kg, Tmax (h), all rats
Protocol: If a salt forming agent is used (e.g. fumarate), a corresponding higher amount of the salt will be used to achieve the intended dosing. Both compounds were dissolved in Klucel™ (0.5% in water) and were orally administered by gavage (5 ml/kg) to conscious rats (n=8, cross-over design). K3-EDTA blood (˜0.2 ml) was collected by puncture of a sublingual vein under light isoflurane anesthesia at the following time points: 0.25, 0.5, 1, 2, 3, 4, 6, 8, 24 h post dose. […]
measured.attribute: Tmax

I am curious: what Tmax value has been reported for Cc1ccc(-c2ccc(O[C@H]3CN4CCC3CC4)cn2)cc1 [Compound A] ? 15 to 30 min
